target: ADAMTS-5 recombinant protein (Homo sapiens (Human)); assay: In vitro ELISA of ADAMTS-5 activity (Aggrecan-IGD enzymatic assay); type: biochemical; details: aggrecan-IGD substrate, ARGSVIL-peptide ELISA, 37° C. 45 minutes
Sequence (Q9UNA0 262-622): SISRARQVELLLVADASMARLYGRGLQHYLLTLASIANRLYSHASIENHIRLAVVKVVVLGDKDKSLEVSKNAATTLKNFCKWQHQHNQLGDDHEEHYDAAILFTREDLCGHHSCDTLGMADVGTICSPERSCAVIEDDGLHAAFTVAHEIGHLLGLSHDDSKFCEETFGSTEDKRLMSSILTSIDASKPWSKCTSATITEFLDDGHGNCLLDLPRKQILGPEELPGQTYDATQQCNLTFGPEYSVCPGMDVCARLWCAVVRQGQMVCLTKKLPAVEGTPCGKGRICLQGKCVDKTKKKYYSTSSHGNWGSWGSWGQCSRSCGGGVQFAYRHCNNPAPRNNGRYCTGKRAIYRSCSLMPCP
Measurement kind: IC50 (µM)

State its IC50 on ADAMTS-5 recombinant protein (Homo sapiens (Human)): Cc1cc(C2(CCC(=O)N3Cc4cc(Cl)c(C(F)(F)F)cc4C3)NC(=O)NC2=O)n[nH]1 (centres unmarked)
0.076

What would you report for O=C1NC(=O)C(CCC(=O)N2Cc3cc(Cl)c(Cl)cc3C2)(c2ccccn2)N1 (centres unmarked) ?
0.072

What would you report for `O=C1NC(=O)[C@](CCC(=O)N2Cc3ccc(OC(F)(F)F)cc3C2)(C2CC2)N1` ?
0.73

[P] Nc1cc2c(cc1Cl)CN(C(=O)CC[C@@]1(C3CC3)NC(=O)NC1=O)C2
[Q] CC1CN(C(=O)CC[C@@]2(C3CC3)NC(=O)NC2=O)CCc2ccc(F)cc21 (some centres unmarked)
[R] CC(C)C(C[C@@]1(C2CC2)NC(=O)NC1=O)C(=O)N1Cc2ccc(C(F)(F)F)cc2C1 (some centres unmarked)
[S] CC1CN(C(=O)CC[C@@]2(C3CC3)NC(=O)NC2=O)CCc2cc(Cl)c(Cl)cc21 (some centres unmarked)
[T] O=C1NC(=O)[C@](CCC(=O)N2CCc3ccc(C(F)(F)F)cc3CC2)(C2CC2)N1
Order by IC50, ascending. # list labels per requested ordering
S, T, R, Q, P

====

Target: ADAMTS-4 recombinant protein (Homo sapiens (Human))
Test: In vitro fluorescence (FRET-peptide) enzymatic assay of ADAMTS-4 activity
Format: biochemical
Details: FRET peptide substrate 15 μM, 10 nM enzyme, 37° C. 3 hours
Procedure: A FRET (fluorescence resonance energy transfer) peptide was cleaved by recombinant ADAMTS-4 or ADAMTS-5 proteins into two separate fragments resulting in an increase of fluorescence signal which was quantified. […] An assay buffer containing 50 mM HEPES pH 7.5, 100 mM NaCl, 5 mM CaCl2, 0.1% CHAPS and 5% Glycerol was prepared. […] The fluorescence signal in each well was determined, after incubation at 37° C. for 3 hours, on a TECAN plate reader (Excitation, 490 nm; Emission, 520 nm). […]
Measurement kind: IC50 (nM)

Examples with answers:
State its IC50 on ADAMTS-4 recombinant protein (Homo sapiens (Human)): `O=C1NC(=O)[C@](CCC(=O)N2CCc3cc(C(F)(F)F)ccc3C2)(C2CC2)N1`
56

What would you report for O=C1NC(=O)C(CC(COCc2ccccc2)C(=O)N2Cc3ccc(C(F)(F)F)cc3C2)(C2CC2)N1 (centres unmarked) ?
16

What would you report for `[2H]C1([2H])c2cc(Cl)c(Cl)cc2C([2H])([2H])N1C(=O)CC[C@@]1(C2CC2)NC(=O)NC1=O` ?
28

[I] [2H]C1([2H])c2cc(Cl)c(Cl)cc2C(C)N1C(=O)CC[C@@]1(C2CC2)NC(=O)NC1=O (some centres unmarked)
[II] O=C1NC(=O)[C@](CCC(=O)N2Cc3cc(Cl)c(I)cc3C2)(C2CC2)N1
[III] O=C1NC(=O)[C@](CCC(=O)N2CCc3ccc(F)cc3CC2)(C2CC2)N1
[IV] O=C1NC(=O)[C@](CCC(=O)N2Cc3ccc(C(F)F)cc3C2)(C2CC2)N1
[V] O=C1NC(=O)[C@](CCC(=O)N2Cc3cc(Cl)c([N+](=O)[O-])cc3C2)(C2CC2)N1
Output the entries ranked by IC50 from maximum down to minimum. # list labels per requested ordering
II, V, I, IV, III

====

biological target: ADAMTS-4 recombinant protein (Homo sapiens (Human), UniProt O75173); experiment: In vitro fluorescence (FRET-peptide) enzymatic assay of ADAMTS-4 activity; details: FRET peptide substrate 15 μM, 10 nM enzyme, 37° C. 3 hours
Sequence (O75173 213-685): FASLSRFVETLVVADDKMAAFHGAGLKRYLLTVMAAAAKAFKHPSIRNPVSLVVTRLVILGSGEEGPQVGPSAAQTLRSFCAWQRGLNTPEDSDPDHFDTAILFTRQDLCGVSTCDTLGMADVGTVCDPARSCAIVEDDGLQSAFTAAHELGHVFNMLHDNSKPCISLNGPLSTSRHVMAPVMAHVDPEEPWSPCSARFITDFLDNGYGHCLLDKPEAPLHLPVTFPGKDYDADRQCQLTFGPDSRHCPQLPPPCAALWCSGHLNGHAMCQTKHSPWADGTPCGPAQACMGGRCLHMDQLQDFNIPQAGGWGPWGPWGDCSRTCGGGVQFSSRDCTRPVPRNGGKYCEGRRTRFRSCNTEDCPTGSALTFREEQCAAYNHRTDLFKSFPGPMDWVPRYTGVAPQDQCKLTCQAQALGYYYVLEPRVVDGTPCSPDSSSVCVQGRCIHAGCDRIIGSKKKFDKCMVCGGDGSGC
Measurement kind: IC50 (nM)

Form field: reported IC50 of `O=C1NC(=O)[C@](CCC(=O)N2CCc3ccc(C(F)(F)F)cc3CC2)(C2CC2)N1`
19

What would you report for Cn1ccnc1C1(CCC(=O)N2Cc3ccc(C(F)(F)F)cc3C2)NC(=O)NC1=O (stereo not shown) ?
100

What would you report for `O=C1NC(=O)[C@](CCC(=O)N2Cc3cc(Cl)c(C(F)(F)F)cc3C2)(C2CC2)N1` ?
42

What would you report for `COc1cccc2c1CCN(C(=O)CC[C@@]1(C3CC3)NC(=O)NC1=O)CC2` ?
5800

What would you report for C[C@@H]1CN(C(=O)CC[C@@]2(C3CC3)NC(=O)NC2=O)CCc2ccc(F)cc21 (single isomer, unassigned) ?
47

[P] O=C1NC(=O)C(CC(CO)C(=O)N2Cc3cc(Cl)c(Cl)cc3C2)(C2CC2)N1 (stereo not shown)
[Q] CC1CN(C(=O)CC[C@@]2(C3CC3)NC(=O)NC2=O)CCc2ccc(F)cc21 (stereo partly shown)
[R] COc1cc2c(cc1Cl)CN(C(=O)C(C)C[C@@]1(C3CC3)NC(=O)NC1=O)C2 (stereo partly shown)
[S] O=C1NC(=O)[C@](CCC(=O)N2Cc3cc(F)c(F)cc3C2)(C2CC2)N1
[T] O=C1NC(=O)[C@](CCC(=O)N2Cc3cc(Br)c(C(F)(F)F)cc3C2)(C2CC2)N1
Order by IC50, ascending. # list labels per requested ordering
P, R, Q, T, S

[A] O=C1NC(=O)C(CCC(=O)N2Cc3cc(Cl)c(Cl)cc3C2)(c2ccccn2)N1 (stereo not shown)
[B] CC(C[C@@]1(C2CC2)NC(=O)NC1=O)C(=O)N1Cc2ccc(C(F)(F)F)cc2C1 (stereo partly shown)
Of A and B , whose reported IC50 is numerically smaller? To answer, give the label that identifies your chosen option.
B

[A] O=C1NC(=O)[C@](CCC(=O)N2Cc3ccc(OC(F)F)cc3C2)(C2CC2)N1
[B] CC(C)C(C[C@@]1(C2CC2)NC(=O)NC1=O)C(=O)N1Cc2ccc(C(F)(F)F)cc2C1 (stereo partly shown)
When A and B are compared, which has the higher number for IC50? To answer, give the label that identifies your chosen option.
A

====

target: ADAMTS-4 recombinant protein (Homo sapiens (Human)); experiment: In vitro fluorescence (FRET-peptide) enzymatic assay of ADAMTS-4 activity; settings: FRET peptide substrate 15 μM, 10 nM enzyme, 37° C. 3 hours
pIC50: −log10 of the molar value.
Measurement kind: pIC50

Form field: reported pIC50 of `C[C@@H]1c2cc(Cl)c(Cl)cc2CN1C(=O)CC[C@@]1(C2CC2)NC(=O)NC1=O`
7.92

What would you report for CC1CN(C(=O)CC[C@@]2(C3CC3)NC(=O)NC2=O)CCc2ccc(Cl)c(Cl)c21 (some centres unmarked) ?
7.21

[a] O=C1NC(=O)[C@](CCC(=O)N2Cc3cccnc3C2)(C2CC2)N1
[b] O=C1NC(=O)C(CCC(=O)N2Cc3ccc(C(F)(F)F)cc3C2)(c2ccccn2)N1 (centres unmarked)
When a and b are compared, which has the higher number for pIC50? To answer, give the label that identifies your chosen option.
b

====

target: ADAMTS-4 recombinant protein (Homo sapiens (Human), UniProt O75173); experiment: In vitro fluorescence (FRET-peptide) enzymatic assay of ADAMTS-4 activity; settings: FRET peptide substrate 15 μM, 10 nM enzyme, 37° C. 3 hours
pIC50: −log10 of the molar value.
Measurement kind: pIC50

Form field: reported pIC50 of CCn1ccnc1C1(CCC(=O)N2Cc3cc(Cl)c(C(F)(F)F)cc3C2)NC(=O)NC1=O (stereo not shown) [Example 82]
7.10

[A] CC1c2cc(Cl)c(Cl)cc2CN1C(=O)CC[C@@]1(C2CC2)NC(=O)NC1=O (stereo partly shown) [Example 66]
[B] O=C1NC(=O)[C@](CCC(=O)N2Cc3cccc(F)c3C2)(C2CC2)N1 [Example 16]
[C] COc1cc2c(cc1Cl)CN(C(=O)CC[C@@]1(C3CC3)NC(=O)NC1=O)C2 [Example 35]
Output the entries ranked by pIC50 from maximum down to minimum. # list labels per requested ordering
A, C, B
(A: 7.37, C: 6.64, B: 5.77)

====

biological target: ADAMTS-4 recombinant protein (Homo sapiens (Human), UniProt O75173); assay: In vitro fluorescence (FRET-peptide) enzymatic assay of ADAMTS-4 activity; settings: FRET peptide substrate 15 μM, 10 nM enzyme, 37° C. 3 hours
pIC50: −log10 of the molar value.
Measurement kind: pIC50

Examples with answers:
Form field: reported pIC50 of C[C@H]1CN(C(=O)CC[C@@]2(C3CC3)NC(=O)NC2=O)CCc2ccc(F)cc21 (single isomer, unassigned)
6.77

What would you report for `O=C1NC(=O)[C@](CCC(=O)N2Cc3ccccc3C2)(C2CC2)N1` ?
6.96

What would you report for `O=C1NC(=O)[C@](CCC(=O)N2Cc3cc(Cl)c(Cl)cc3C2)(C2CC2)N1` ?
7.66

What would you report for Cc1cc(C2(CCC(=O)N3Cc4cc(Cl)c(C(F)(F)F)cc4C3)NC(=O)NC2=O)no1 (centres unmarked) ?
6.92

What would you report for `O=C1NC(=O)[C@](CCC(=O)N2Cc3ccc(C(F)(F)F)cc3C2)(C2CC2)N1` ?
7.22

[I] O=C1NC(=O)[C@](CCC(=O)N2Cc3ccc(F)cc3C2)(C2CC2)N1
[II] COc1ccc2c(c1)CN(C(=O)CC[C@@]1(C3CC3)NC(=O)NC1=O)C2
Of I and II , whose reported pIC50 is numerically smaller? To answer, give the label that identifies your chosen option.
I
(I: 6.51, II: 6.92)

The reported numbers originate from patent US20240299360A1.
